Molecular target: ligand binding domain of human RORγ (Homo sapiens, UniProt P51449)
Construct: host or cells: HEK293t
Sequence (P51449 269-508 limits assumed): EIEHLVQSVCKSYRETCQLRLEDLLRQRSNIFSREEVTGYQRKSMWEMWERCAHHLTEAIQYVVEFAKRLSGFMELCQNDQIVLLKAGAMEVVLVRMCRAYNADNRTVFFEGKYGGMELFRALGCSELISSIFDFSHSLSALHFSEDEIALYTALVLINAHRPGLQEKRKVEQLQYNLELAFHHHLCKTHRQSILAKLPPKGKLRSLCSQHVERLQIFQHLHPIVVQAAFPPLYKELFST
Test: RORγ Reporter Assay (Gal4)
Format: cell-based
Conditions: HEK-293T, 1 μM test compound, HEK293t RORγ reporter cells, 24 hour; read-out: Gal4 activity range @ 1 μM (% inhibition)
METRIC: inhibition at 1 µM

Examples with answers:
>  <COMPOUND>
Fc1c(NCc2ccc(Cc3nnn[nH]3)cc2)ncnc1N(Cc1ccc(C(F)(F)F)cc1)C1CC1

>  <TARGET OF ASSAY>
ligand binding domain of human RORγ (Homo sapiens, UniProt P51449)

>  <RESULT>
> 80%

$$$$
>  <COMPOUND>
CC(c1ccc(C(F)(F)F)cc1)N(c1ncnc(NCc2ccc(CC(N)=O)cc2)c1F)C1CC1 (centres unmarked)

>  <TARGET OF ASSAY>
ligand binding domain of human RORγ (Homo sapiens, UniProt P51449)

>  <RESULT>
> 80%

$$$$
>  <COMPOUND>
O=S(=O)(N[C@H]1CC[C@H](CNc2ncnc(N(Cc3ccc(C(F)(F)F)cc3)C3CC3)c2F)CC1)C(F)(F)F

>  <TARGET OF ASSAY>
ligand binding domain of human RORγ (Homo sapiens, UniProt P51449)

>  <RESULT>
> 80%

$$$$

Problem: If you can, please state the reported inhibition at 1 µM value of CN(C)CCNC(=O)CC1(CNc2ncnc(N(Cc3ccc(C(F)(F)F)cc3)C3CC3)c2F)CCOCC1 .
Solution: > 50%

Problem: If you can, please state the reported inhibition at 1 µM value of O=S(=O)(Nc1ccc(CNc2ncnc(N(Cc3ccc(C(F)(F)F)cc3)C3CC3)c2F)cc1)C(F)(F)F .
Solution: > 80%

Problem: If you can, please state the reported inhibition at 1 µM value of O=C(O)CC1(CNc2ncnc(N(Cc3ccc(C(F)(F)F)cc3)C3CC3)c2F)CCOCC1 .
Solution: > 20%

====

target: ligand binding domain of human RORγ (Homo sapiens, UniProt P51449); construct: host or cells: HEK293t; experiment: RORγ Reporter Assay (Gal4); assay type: cell-based; conditions: RORγ Reporter Assay (Gal4), HEK293t reporter cells, compound at 0.1 μM; values are activity range bounds
METRIC: Gal4 activity range @ 0.1 μM (% inhibition)

Examples with answers:
>  <MOLECULE>
CS(=O)(=O)c1ccc(CCNc2ncnc(N(Cc3ccc(C(F)(F)F)cc3)C3CC3)c2F)cc1

>  <RESULT>
>50 % inhibition

$$$$
>  <MOLECULE>
CS(=O)(=O)N1[C@@H]2CC[C@H]1CC(CNc1ncnc(N(Cc3ccc(C(F)(F)F)cc3)C3CC3)c1F)C2 (stereo partly drawn)

>  <RESULT>
>80 % inhibition

$$$$
>  <MOLECULE>
NC(=O)Cc1ccc(CNc2ncnc(N(Cc3ccc(C(F)(F)F)cc3)C3CC3)c2F)cc1

>  <RESULT>
>80 % inhibition

$$$$
>  <MOLECULE>
NC(=O)Cc1ccc(CNc2ncnc(N(Cc3ccc(OC(F)(F)F)cc3)C3CC3)c2F)cc1

>  <RESULT>
>80 % inhibition

$$$$
>  <MOLECULE>
NC(=O)Cc1ccc(Cn2ccc3c(N(Cc4ccc(C(F)(F)F)cc4)C4CC4)ncnc32)cc1

>  <RESULT>
>80 % inhibition

$$$$

Problem: Entry CCN(CC1COc2ccccc2O1)c1ncnc(NCc2ccc(CC(N)=O)cc2)c1F (stereo not drawn) , system ligand binding domain of human RORγ (Homo sapiens, UniProt P51449): what Gal4 activity range @ 0.1 μM (% inhibition) was measured?
Solution: >0 % inhibition

Problem: Entry CCCn1nc(C)cc1CN(C)c1ncnc(NCc2ccc(CC(N)=O)cc2)c1F [Example A68] , system ligand binding domain of human RORγ (Homo sapiens, UniProt P51449): what Gal4 activity range @ 0.1 μM (% inhibition) was measured?
Solution: >0 % inhibition

Problem: Entry NC(=O)Cc1ccc(CNc2ncnc(N(Cc3ccc(C(F)(F)F)cc3)C3CC3)c2F)cn1 , system ligand binding domain of human RORγ (Homo sapiens, UniProt P51449): what Gal4 activity range @ 0.1 μM (% inhibition) was measured?
Solution: >50 % inhibition

Problem: Entry OCC1(Cn2ccc3c(N(Cc4ccc(C(F)(F)F)cc4)C4CC4)ncnc32)COC1 , system ligand binding domain of human RORγ (Homo sapiens, UniProt P51449): what Gal4 activity range @ 0.1 μM (% inhibition) was measured?
Solution: >80 % inhibition

Problem: Entry O=S(=O)(N[C@H]1CC[C@H](CNc2ncnc(N(Cc3ccc(C(F)(F)F)cc3)C3CC3)c2F)CC1)C(F)(F)F , system ligand binding domain of human RORγ (Homo sapiens, UniProt P51449): what Gal4 activity range @ 0.1 μM (% inhibition) was measured?
Solution: >50 % inhibition

Problem: Entry CS(=O)(=O)N1CC2CC2(CNc2ncnc(N(Cc3ccc(C(F)(F)F)cc3)C3CC3)c2F)C1 (stereo not drawn) , system ligand binding domain of human RORγ (Homo sapiens, UniProt P51449): what Gal4 activity range @ 0.1 μM (% inhibition) was measured?
Solution: >20 % inhibition

Problem: Entry CS(=O)(=O)Nc1ccc(CNc2ncnc(N(Cc3ccc(C(F)(F)F)cc3)C3CC3)c2F)cc1 , system ligand binding domain of human RORγ (Homo sapiens, UniProt P51449): what Gal4 activity range @ 0.1 μM (% inhibition) was measured?
Solution: >80 % inhibition

Problem: Entry NC(=O)Cc1ccc(CNc2ncnc(N(Cc3cc(C(F)(F)F)ccn3)C3CC3)c2F)cc1 , system ligand binding domain of human RORγ (Homo sapiens, UniProt P51449): what Gal4 activity range @ 0.1 μM (% inhibition) was measured?
Solution: >0 % inhibition

Problem: Entry CN(Cc1ccc(OC(F)(F)F)cc1)c1ncnc(NCc2ccc(CC(N)=O)cc2)c1F , system ligand binding domain of human RORγ (Homo sapiens, UniProt P51449): what Gal4 activity range @ 0.1 μM (% inhibition) was measured?
Solution: >20 % inhibition

Problem: Entry Fc1c(NCc2ccc(Cc3nnn[nH]3)cc2)ncnc1N(Cc1ccc(-n2cccn2)cc1)C1CC1 , system ligand binding domain of human RORγ (Homo sapiens, UniProt P51449): what Gal4 activity range @ 0.1 μM (% inhibition) was measured?
Solution: >0 % inhibition

Problem: Entry CS(=O)(=O)N1CCC(CNc2ncnc(N(Cc3ccc(C(F)(F)F)cc3)C3CC3)c2F)CC1 , system ligand binding domain of human RORγ (Homo sapiens, UniProt P51449): what Gal4 activity range @ 0.1 μM (% inhibition) was measured?
Solution: >80 % inhibition

Problem: Entry N#CCc1ccc(CNc2ncnc(N(Cc3ccc(C(F)(F)F)cc3)C3CC3)c2F)cc1 , system ligand binding domain of human RORγ (Homo sapiens, UniProt P51449): what Gal4 activity range @ 0.1 μM (% inhibition) was measured?
Solution: >50 % inhibition

Problem: Entry NC(=O)Cc1ccc(CNc2ncnc(N(Cc3ccc(C(F)(F)F)cc3)CC3CC3)c2F)cc1 , system ligand binding domain of human RORγ (Homo sapiens, UniProt P51449): what Gal4 activity range @ 0.1 μM (% inhibition) was measured?
Solution: >50 % inhibition

Problem: Entry O=C(C1CC1)N1CCC(CNc2ncnc(N(Cc3ccc(C(F)(F)F)cc3)C3CC3)c2F)CC1 , system ligand binding domain of human RORγ (Homo sapiens, UniProt P51449): what Gal4 activity range @ 0.1 μM (% inhibition) was measured?
Solution: >50 % inhibition

Problem: Entry CC(C)c1ccc(CN(c2ncnc(NCc3ccc(CC(N)=O)cc3)c2F)C2CC2)cc1 , system ligand binding domain of human RORγ (Homo sapiens, UniProt P51449): what Gal4 activity range @ 0.1 μM (% inhibition) was measured?
Solution: >80 % inhibition

Problem: Entry NC(=O)Cc1ccc(CNc2ncnc(N(Cc3ccnc(C(F)(F)F)c3)C3CC3)c2F)cc1 , system ligand binding domain of human RORγ (Homo sapiens, UniProt P51449): what Gal4 activity range @ 0.1 μM (% inhibition) was measured?
Solution: >20 % inhibition

Problem: Entry Cc1cccc(Cl)c1CN(c1ncnc(NCc2ccc(CC(N)=O)cc2)c1F)C1CC1 , system ligand binding domain of human RORγ (Homo sapiens, UniProt P51449): what Gal4 activity range @ 0.1 μM (% inhibition) was measured?
Solution: >20 % inhibition

Problem: Entry COC(=O)CC(c1ccc(C(F)(F)F)cc1)N(c1ncnc(NCc2ccc(CC(N)=O)cc2)c1F)C1CC1 (stereo not drawn) , system ligand binding domain of human RORγ (Homo sapiens, UniProt P51449): what Gal4 activity range @ 0.1 μM (% inhibition) was measured?
Solution: >0 % inhibition

Problem: Entry O=S1(=O)CCC(O)(CNc2ncnc(N(Cc3ccc(C(F)(F)F)cc3)C3CC3)c2F)CC1 , system ligand binding domain of human RORγ (Homo sapiens, UniProt P51449): what Gal4 activity range @ 0.1 μM (% inhibition) was measured?
Solution: >50 % inhibition

Where do these numbers come from? They come from patent US10683293B2.
